test system: PPARg:RXRa 270nM:90nM, anti-RXR (NR concentration 270 nM, RXRa partner concentration 90 nM); experiment: PBM binding z-score (relative to random genomic background probes); higher = stronger binding; sequences stand for … in GC…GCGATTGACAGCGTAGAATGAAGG
Quick rule: PBM binding z-score of at least -0.2 means fulfilled, below that means not fulfilled.

Is the recorded value of PBM binding z-score equal to or greater than -0.2 for this sequence? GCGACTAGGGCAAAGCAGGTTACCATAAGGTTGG fulfilled

Next:
Can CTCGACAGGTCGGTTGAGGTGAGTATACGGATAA be said to have PBM binding z-score at or above -0.2? not fulfilled

Hi, just wondering whether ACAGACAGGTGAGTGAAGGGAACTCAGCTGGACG shows PBM binding z-score of -0.2 or higher. not fulfilled

Exam item: decide whether the reported PBM binding z-score for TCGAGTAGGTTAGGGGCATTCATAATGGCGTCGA is at least -0.2. fulfilled

Assess whether reported PBM binding z-score for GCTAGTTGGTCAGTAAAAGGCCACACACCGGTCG sits at -0.2 or higher. fulfilled

====

system: PPARg DBDmut:RXRa IVT, anti-PPARg (DBD mutation: PPARg1 K132A/R137A, NR concentration 270 nM, RXRa partner concentration 90 nM); assay: PBM binding z-score (relative to random genomic background probes); higher = stronger binding; sequences stand for … in GC…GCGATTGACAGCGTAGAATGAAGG
Some sequences, each annotated with its measured PBM binding z-score.
Output spec: single numeric token, no unit.

Check out these entries, answers already filled in.
Item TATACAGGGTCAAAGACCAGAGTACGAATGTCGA has what recorded PBM binding z-score? 1.75

Need PBM binding z-score of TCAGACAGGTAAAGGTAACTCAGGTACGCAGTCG , thanks. 0.618

Name the reported PBM binding z-score value associated with the sequence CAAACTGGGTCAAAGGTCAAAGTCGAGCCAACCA 2.08

Given the sequence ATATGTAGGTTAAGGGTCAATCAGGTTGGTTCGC , what is its reported PBM binding z-score? 1.78

Item under review: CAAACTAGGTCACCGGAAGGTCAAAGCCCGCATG . Reported PBM binding z-score? 2.12

---
Look at this sequence and give its reported PBM binding z-score. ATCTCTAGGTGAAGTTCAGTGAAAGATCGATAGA 1.05

Fill blank: measured PBM binding z-score of the sequence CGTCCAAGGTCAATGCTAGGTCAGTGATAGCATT is ____. 0.259

For the sequence shown here, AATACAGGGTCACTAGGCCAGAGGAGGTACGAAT , give the reported PBM binding z-score. 1.86

====

test system: PXR homodimer (NR concentration 270 nM); test: PBM binding z-score (relative to random genomic background probes); higher = stronger binding; sequences stand for … in GC…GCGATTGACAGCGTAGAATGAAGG
READOUT_KIND: PBM binding z-score
Just the number, please, no unit after it.

Fill in the recorded PBM binding z-score for this sequence, with PXR homodimer (NR concentration 270 nM) as test system: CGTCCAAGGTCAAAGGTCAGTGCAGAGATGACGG 2.79

Form: Entry = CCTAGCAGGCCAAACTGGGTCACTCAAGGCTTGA | System = PXR homodimer (NR concentration 270 nM) | PBM binding z-score = ____ -0.482

Tell me reported PBM binding z-score for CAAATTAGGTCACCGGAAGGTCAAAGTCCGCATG , tested with PXR homodimer (NR concentration 270 nM). 1.78

Form: Entry = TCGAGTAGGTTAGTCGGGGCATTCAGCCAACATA | System = PXR homodimer (NR concentration 270 nM) | PBM binding z-score = ____ -0.488

Others:
Please provide the recorded PBM binding z-score for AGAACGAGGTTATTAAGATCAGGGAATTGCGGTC , tested on PXR homodimer (NR concentration 270 nM). 0.955

# returns recorded PBM binding z-score (system: PXR homodimer (NR concentration 270 nM)) for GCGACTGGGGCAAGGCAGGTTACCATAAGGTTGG -0.567

Give the reported PBM binding z-score for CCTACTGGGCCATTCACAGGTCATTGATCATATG (system: PXR homodimer (NR concentration 270 nM)). 0.599

Form: Entry = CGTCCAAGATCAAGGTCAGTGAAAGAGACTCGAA | System = PXR homodimer (NR concentration 270 nM) | PBM binding z-score = ____ 0.628

====

test system: LXRb:RXRa (NR concentration 270 nM, RXRa partner concentration 90 nM); test: PBM binding z-score (relative to random genomic background probes); higher = stronger binding; sequences stand for … in GC…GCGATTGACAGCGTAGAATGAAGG
The following sequences are shown together with reported PBM binding z-score values.
The reply should be a number, written without any unit.

Sample answers from the record:
What value of PBM binding z-score has been recorded for this entry: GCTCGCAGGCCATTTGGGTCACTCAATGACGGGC 0.0952

If you can, please state the reported PBM binding z-score value of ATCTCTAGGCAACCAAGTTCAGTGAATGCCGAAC . 0.113

***
Given the entry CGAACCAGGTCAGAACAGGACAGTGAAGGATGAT , report its measured PBM binding z-score. 0.939

Can you share its PBM binding z-score? I mean this sequence: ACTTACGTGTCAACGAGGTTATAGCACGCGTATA 1.02

====

PBM binding z-score by entry:
tested on: RARg homodimer (NR concentration 270 nM); assay: PBM binding z-score (relative to random genomic background probes); higher = stronger binding; sequences stand for … in GC…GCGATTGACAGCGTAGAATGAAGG
Please give only the number in your answer, with no unit.

These solved cases illustrate the format of a correct answer.
Consider the sequence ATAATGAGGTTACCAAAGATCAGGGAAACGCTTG and give its measured PBM binding z-score. 1.95

Requested field: PBM binding z-score. Item: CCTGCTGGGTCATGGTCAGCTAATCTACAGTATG 3.65

Suppose we examine the sequence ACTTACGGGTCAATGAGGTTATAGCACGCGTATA ; what PBM binding z-score value has been reported? 4.75

Could you tell me which PBM binding z-score is on file for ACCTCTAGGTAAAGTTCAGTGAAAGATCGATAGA ? 2.19

Data request, read-out PBM binding z-score, for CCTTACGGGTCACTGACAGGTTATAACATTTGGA 4.56

What does the data say about its PBM binding z-score? Entry: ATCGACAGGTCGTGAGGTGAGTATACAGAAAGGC 1.67

Lab note: next sequence to report on.
Value lookup for PBM binding z-score; key = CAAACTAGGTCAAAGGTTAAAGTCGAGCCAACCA 5.26

====

test system: PPARg DBDmut IVT, anti-PPARg (DBD mutation: PPARg1 K132A/R137A, NR concentration 270 nM); assay: PBM binding z-score (relative to random genomic background probes); higher = stronger binding; sequences stand for … in GC…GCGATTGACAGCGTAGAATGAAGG
READOUT_KIND: PBM binding z-score
Number, no unit, nothing else.

// solved cases for PBM binding z-score follow
Value wanted: PBM binding z-score (PPARg DBDmut IVT, anti-PPARg (DBD mutation: PPARg1 K132A/R137A, NR concentration 270 nM)) of entry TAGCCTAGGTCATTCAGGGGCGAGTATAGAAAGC 0.38

Request body: readout PBM binding z-score, system PPARg DBDmut IVT, anti-PPARg (DBD mutation: PPARg1 K132A/R137A, NR concentration 270 nM), query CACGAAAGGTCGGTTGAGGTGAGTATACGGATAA . Return the value. 0.977

Missing value: PBM binding z-score, PPARg DBDmut IVT, anti-PPARg (DBD mutation: PPARg1 K132A/R137A, NR concentration 270 nM), entry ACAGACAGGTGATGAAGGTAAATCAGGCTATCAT . Fill in? 0.144

Give PBM binding z-score (PPARg DBDmut IVT, anti-PPARg (DBD mutation: PPARg1 K132A/R137A, NR concentration 270 nM)) of the following sequence: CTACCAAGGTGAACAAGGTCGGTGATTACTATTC -0.584

GET /values?readout=PBM binding z-score&system=PPARg DBDmut IVT, anti-PPARg (DBD mutation: PPARg1 K132A/R137A, NR concentration 270 nM)&item= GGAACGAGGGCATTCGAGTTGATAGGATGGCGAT -0.611

Requested read-out PBM binding z-score, target or system PPARg DBDmut IVT, anti-PPARg (DBD mutation: PPARg1 K132A/R137A, NR concentration 270 nM), entry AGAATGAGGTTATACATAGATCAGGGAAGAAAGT 1.27

Continuing:
Please provide the recorded PBM binding z-score for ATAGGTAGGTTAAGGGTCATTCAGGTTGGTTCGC , tested on PPARg DBDmut IVT, anti-PPARg (DBD mutation: PPARg1 K132A/R137A, NR concentration 270 nM). 1.88

Form: Entry = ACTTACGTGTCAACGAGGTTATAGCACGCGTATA | System = PPARg DBDmut IVT, anti-PPARg (DBD mutation: PPARg1 K132A/R137A, NR concentration 270 nM) | PBM binding z-score = ____ 0.671

What value of PBM binding z-score on PPARg DBDmut IVT, anti-PPARg (DBD mutation: PPARg1 K132A/R137A, NR concentration 270 nM) does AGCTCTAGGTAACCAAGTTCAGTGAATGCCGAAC have? -0.0149
